Let's look at some molecules and their measured MIC.
# Tested on: Streptococcus pneumoniae
# testDescription: Antibacterial activity against Streptococcus pneumoniae after 24 hrs by microdilution method
# Format: functional
assayReadout: MIC

{"smilesStr": "CC[C@H]1OC(=O)/C(C)=C\\[C@H](C)[C@@H](O[C@@H]2O[C@H](C)C[C@H](N(C)C)[C@H]2O)[C@](C)(OC)C[C@@H](C)CN(C(=O)NC(C)C)[C@H](C)[C@@H](O)[C@]1(C)O", "measuredOn": "Streptococcus pneumoniae", "assayReadout": "MIC", "result": "8 µg/mL"}
{"smilesStr": "CC[C@H]1OC(=O)[C@H](C)[C@@H](O)[C@H](C)[C@@H](O[C@@H]2O[C@H](C)C[C@H](N(C)C)[C@H]2O)[C@](C)(O)C[C@@H](C)CN(C(=O)NC(C)C)[C@H](C)[C@@H](O)[C@]1(C)O", "measuredOn": "Streptococcus pneumoniae", "assayReadout": "MIC", "result": "> 64 µg/mL"}
{"smilesStr": "CC[C@H]1OC(=O)/C(C)=C\\[C@H](C)[C@@H](O[C@@H]2O[C@H](C)C[C@H](N(C)C)[C@H]2O)[C@](C)(OC)C[C@@H](C)CN(C(=O)Nc2ccc(Cl)cc2Cl)[C@H](C)[C@@H](O)[C@]1(C)O", "measuredOn": "Streptococcus pneumoniae", "assayReadout": "MIC", "result": "8 µg/mL"}
{"smilesStr": "CC[C@H]1OC(=O)[C@H](C)[C@@H](OC(=O)Cc2ccc([N+](=O)[O-])cc2)[C@H](C)[C@@H](O[C@@H]2O[C@H](C)C[C@H](N(C)C)[C@H]2O)[C@](C)(O)C[C@@H](C)CN(C(=O)Nc2ccc(Cl)cc2Cl)[C@H](C)[C@@H](O)[C@]1(C)O", "measuredOn": "Streptococcus pneumoniae", "assayReadout": "MIC", "result": "2 µg/mL"}
{"smilesStr": "CC[C@H]1OC(=O)[C@H](C)C(=O)[C@H](C)[C@@H](O[C@@H]2O[C@H](C)C[C@H](N(C)C)[C@H]2O)[C@](C)(OC)C[C@@H](C)CN(C(=O)Nc2ccc(Cl)cc2Cl)[C@H](C)[C@@H](O)[C@]1(C)O", "measuredOn": "Streptococcus pneumoniae", "assayReadout": "MIC", "result": "8 µg/mL"}
{"smilesStr": "CC[C@H]1OC(=O)[C@H](C)C(=O)[C@H](C)[C@@H](O[C@@H]2O[C@H](C)C[C@H](N(C)C)[C@H]2O)[C@](C)(OC)C[C@@H](C)CN(C(=O)NC(C)C)[C@H](C)[C@@H](O)[C@]1(C)O", "measuredOn": "Streptococcus pneumoniae", "assayReadout": "MIC", "result": "8 µg/mL"}
{"smilesStr": "CC[C@H]1OC(=O)[C@H](C)[C@@H](O)[C@H](C)[C@@H](O[C@@H]2O[C@H](C)C[C@H](N(C)C)[C@H]2O)[C@](C)(O)C[C@@H](C)CN(C(=O)NCc2ccccc2)[C@H](C)[C@@H](O)[C@]1(C)O", "measuredOn": "Streptococcus pneumoniae", "assayReadout": "MIC", "result": "> 64 µg/mL"}
{"smilesStr": "CC[C@H]1OC(=O)[C@H](C)C2(O)O[C@@](C)(C[C@@H](C)CN(C(=O)NC(C)C)[C@H](C)[C@@H](O)[C@]1(C)O)[C@H](O[C@@H]1O[C@H](C)C[C@H](N(C)C)[C@H]1O)[C@H]2C", "measuredOn": "Streptococcus pneumoniae", "assayReadout": "MIC", "result": "> 64 µg/mL"}
{"smilesStr": "CC[C@H]1OC(=O)[C@H](C)[C@@H](O)[C@H](C)[C@@H](O[C@@H]2O[C@H](C)C[C@H](N(C)C)[C@H]2O)[C@](C)(O)C[C@@H](C)CN(C(=O)NC(C)(C)C)[C@H](C)[C@@H](O)[C@]1(C)O", "measuredOn": "Streptococcus pneumoniae", "assayReadout": "MIC", "result": "> 64 µg/mL"}
{"smilesStr": "CC[C@H]1OC(=O)[C@H](C)[C@@H](O)[C@H](C)[C@@H](O[C@@H]2O[C@H](C)C[C@H](N(C)C)[C@H]2O)[C@](C)(O)C[C@@H](C)CN(C(=O)Nc2ccccc2C(F)(F)F)[C@H](C)[C@@H](O)[C@]1(C)O", "measuredOn": "Streptococcus pneumoniae", "assayReadout": "MIC", "result": "> 64 µg/mL"}
{"smilesStr": "CC[C@H]1OC(=O)[C@H](C)[C@@H](O)[C@H](C)[C@@H](O[C@@H]2O[C@H](C)C[C@H](N(C)C)[C@H]2O)[C@](C)(O)C[C@@H](C)CN(C(=O)Nc2ccc(Cl)cc2Cl)[C@H](C)[C@@H](O)[C@]1(C)O", "measuredOn": "Streptococcus pneumoniae", "assayReadout": "MIC", "result": "> 64 µg/mL"}
{"smilesStr": "CC[C@H]1OC(=O)[C@H](C)[C@@H](O)[C@H](C)[C@@H](O[C@@H]2O[C@H](C)C[C@H](N(C)C)[C@H]2O)[C@](C)(O)C[C@@H](C)CN(C(=S)Nc2cccc(C(F)(F)F)c2)[C@H](C)[C@@H](O)[C@]1(C)O", "measuredOn": "Streptococcus pneumoniae", "assayReadout": "MIC", "result": "> 64 µg/mL"}
{"smilesStr": "CC[C@H]1OC(=O)[C@H](C)[C@@H](O[C@H]2C[C@@](C)(OC)[C@@H](O)[C@H](C)O2)[C@H](C)[C@@H](O[C@@H]2O[C@H](C)C[C@H](N(C)C)[C@H]2O)[C@](C)(OC)C[C@@H](C)CN[C@H](C)[C@@H](O)[C@]1(C)O", "measuredOn": "Streptococcus pneumoniae", "assayReadout": "MIC", "result": "0.5 µg/mL"}
{"smilesStr": "CC[C@H]1OC(=O)[C@H](C)[C@@H](O)[C@H](C)[C@@H](O[C@@H]2O[C@H](C)C[C@H](N(C)C)[C@H]2O)[C@](C)(OC)C[C@@H](C)CN(C(=O)Nc2ccc(Cl)cc2Cl)[C@H](C)[C@@H](O)[C@]1(C)O", "measuredOn": "Streptococcus pneumoniae", "assayReadout": "MIC", "result": "> 64 µg/mL"}
{"smilesStr": "CCNC(=O)N1C[C@H](C)C[C@@](C)(O)[C@H](O[C@@H]2O[C@H](C)C[C@H](N(C)C)[C@H]2O)[C@@H](C)[C@H](O)[C@@H](C)C(=O)O[C@H](CC)[C@@](C)(O)[C@H](O)[C@H]1C", "measuredOn": "Streptococcus pneumoniae", "assayReadout": "MIC", "result": "> 64 µg/mL"}
{"smilesStr": "CC[C@H]1OC(=O)[C@H](C)C2O[C@@](C)(C[C@@H](C)CN(C(=O)NC(C)C)[C@H](C)[C@@H](O)[C@]1(C)O)[C@H](O[C@@H]1O[C@H](C)C[C@H](N(C)C)[C@H]1O)[C@H]2C", "measuredOn": "Streptococcus pneumoniae", "assayReadout": "MIC", "result": "> 64 µg/mL"}
{"smilesStr": "CC[C@H]1OC(=O)[C@H](C)C2(O)O[C@@](C)(C[C@@H](C)CN(C(=O)Nc3ccc(Cl)cc3Cl)[C@H](C)[C@@H](O)[C@]1(C)O)[C@H](O[C@@H]1O[C@H](C)C[C@H](N(C)C)[C@H]1O)[C@H]2C", "measuredOn": "Streptococcus pneumoniae", "assayReadout": "MIC", "result": "> 64 µg/mL"}
{"smilesStr": "CC[C@H]1OC(=O)[C@H](C)[C@@H](O)[C@H](C)[C@@H](O[C@@H]2O[C@H](C)C[C@H](N(C)C)[C@H]2O)[C@](C)(OC)C[C@@H](C)CN(C(=O)NC(C)C)[C@H](C)[C@@H](O)[C@]1(C)O", "measuredOn": "Streptococcus pneumoniae", "assayReadout": "MIC", "result": "32 µg/mL"}
